molecular target: mMOR (Mus musculus, UniProt P42866); construct: signal peptide (heterologous, not specified) (N); expressed in transfected cells; pcDNA3.1(+) construct made in house; test: [125I]BNtxA radioligand competition binding, mouse MOR
Sequence (P42866 whole entry): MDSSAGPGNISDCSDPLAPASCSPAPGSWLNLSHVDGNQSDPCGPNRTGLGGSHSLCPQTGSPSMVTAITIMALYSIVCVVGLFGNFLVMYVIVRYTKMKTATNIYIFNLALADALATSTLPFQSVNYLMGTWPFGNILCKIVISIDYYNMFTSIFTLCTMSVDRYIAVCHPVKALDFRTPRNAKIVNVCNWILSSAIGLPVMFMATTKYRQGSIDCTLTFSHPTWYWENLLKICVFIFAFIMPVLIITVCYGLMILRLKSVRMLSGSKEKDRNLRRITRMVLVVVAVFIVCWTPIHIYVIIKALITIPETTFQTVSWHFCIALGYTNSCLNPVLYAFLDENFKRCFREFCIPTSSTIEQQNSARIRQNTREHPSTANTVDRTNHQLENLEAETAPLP
Parameter: pKi
Note on units: pKi is unitless, being -log10 of a concentration expressed in mol/L.

Ask: Returns the measured pKi for the input compound. Input: CC[C@@H]1CN2CC[C@@]3(O)C(=Nc4cccc(OC)c43)[C@@H]2C[C@@H]1/C(=C\OC)C(=O)OC [7OH, 7-Hydroxymitragynine, reference compound]
Reply: 7.67

----------
biological target: mMOR (Mus musculus); construct: signal peptide (heterologous, not specified) (N); expressed in transfected cells; pcDNA3.1(+) construct made in house; assay: [125I]BNtxA radioligand competition binding, mouse MOR; details: mean ± SEM, n = 3; [125I]BNtxA; read-out: Ki ± SEM mMOR
Parameter: pKi
Note on units: pKi is unitless, being -log10 of a concentration expressed in mol/L.

Consider the worked cases shown below.
Compound | pKi
CC[C@@H]1CN2CC[C@@]3(O)C(=Nc4cc(Br)cc(OC)c43)[C@@H]2C[C@@H]1/C(=C\OC)C(=O)OC [11-Br-7OH (24), 11-Br-7OH] | 7.49
CC[C@@H]1CN2CC[C@@]3(O)C(=Nc4cc(Cl)cc(OC)c43)[C@@H]2C[C@@H]1/C(=C\OC)C(=O)OC [11-Cl-7OH (23), 11-Cl-7OH] | 7.57

Ask: Returns the measured pKi for the input compound. Input: CC[C@@H]1CN2CC[C@@]3(O)C(=Nc4cc(F)cc(OC)c43)[C@@H]2C[C@@H]1/C(=C\OC)C(=O)OC [11-F-7OH (22), 11-Fluoro-7-hydroxymitragynine]
Reply: 7.86

----------
molecules and their reported pEC50
target: hMOR (Homo sapiens); construct: plasmid a gift from Dr. Nevin Lambert; assay: CAMYEL BRET cAMP agonist assay at hMOR
Sequence (P35372 whole entry): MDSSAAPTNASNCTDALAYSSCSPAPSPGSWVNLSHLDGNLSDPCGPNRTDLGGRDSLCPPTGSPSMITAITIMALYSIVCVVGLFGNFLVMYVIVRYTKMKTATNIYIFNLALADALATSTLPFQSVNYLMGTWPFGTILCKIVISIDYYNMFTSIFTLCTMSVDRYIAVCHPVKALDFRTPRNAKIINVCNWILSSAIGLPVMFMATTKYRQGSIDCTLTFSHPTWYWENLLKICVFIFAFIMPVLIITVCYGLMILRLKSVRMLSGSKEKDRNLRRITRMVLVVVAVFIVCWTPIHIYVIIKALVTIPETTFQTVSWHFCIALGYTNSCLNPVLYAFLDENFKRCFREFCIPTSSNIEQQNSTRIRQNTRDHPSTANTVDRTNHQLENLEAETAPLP
Note on units: pEC50 is unitless, being -log10 of a concentration expressed in mol/L.

Molecule | pEC50
CC[C@@H]1CN2CC[C@@]3(O)C(=Nc4cc(F)cc(OC)c43)[C@@H]2C[C@@H]1/C(=C\OC)C(=O)OC [11-F-7OH (22), 11-Fluoro-7-hydroxymitragynine] | 7.53
CC[C@@H]1CN2CC[C@@]3(O)C(=Nc4cc(Cl)cc(OC)c43)[C@@H]2C[C@@H]1/C(=C\OC)C(=O)OC [11-Cl-7OH (23), 11-Cl-7OH] | 6.14

Now examine the next entry.
Ask: Returns the measured pEC50 for the input molecule. Input: CC[C@@H]1CN2CC[C@@]3(O)C(=Nc4cc(Br)cc(OC)c43)[C@@H]2C[C@@H]1/C(=C\OC)C(=O)OC [11-Br-7OH (24), 11-Br-7OH]
Reply: 6.40

----------
biological target: mMOR (Mus musculus); construct: signal peptide (heterologous, not specified) (N); expressed in transfected cells; pcDNA3.1(+) construct made in house; test: CAMYEL BRET cAMP agonist assay at mMOR; assay type: cell-based; conditions: mMOR; maximal inhibitory effect on cAMP levels relative to DAMGO
Parameter: Emax (%)
Only the number, expressed in %, is required.

Ask: Returns the measured Emax for the input compound. Input: CC[C@@H]1CN2CC[C@@]3(O)C(=Nc4cccc(OC)c43)[C@@H]2C[C@@H]1/C(=C\OC)C(=O)OC [7OH, 7-Hydroxymitragynine, reference compound]
Reply: 70

Ask: Returns the measured Emax for the input compound. Input: CC[C@@H]1CN2CC[C@@]3(O)C(=Nc4cc(Cl)cc(OC)c43)[C@@H]2C[C@@H]1/C(=C\OC)C(=O)OC
Reply: 13

Ask: Returns the measured Emax for the input compound. Input: CC[C@@H]1CN2CC[C@@]3(O)C(=Nc4cc(F)cc(OC)c43)[C@@H]2C[C@@H]1/C(=C\OC)C(=O)OC [11-F-7OH (22), 11-Fluoro-7-hydroxymitragynine]
Reply: 21
